pIC50 values for the molecules below.
ASSAYED SYSTEM: 5-lipoxygenase (Homo sapiens, UniProt P09917)
Construct: endogenous in cells; host or cells: leukocytes from whole human blood (EDTA, dextran sedimentation, hypotonic lysis)
Sequence (P09917 whole entry): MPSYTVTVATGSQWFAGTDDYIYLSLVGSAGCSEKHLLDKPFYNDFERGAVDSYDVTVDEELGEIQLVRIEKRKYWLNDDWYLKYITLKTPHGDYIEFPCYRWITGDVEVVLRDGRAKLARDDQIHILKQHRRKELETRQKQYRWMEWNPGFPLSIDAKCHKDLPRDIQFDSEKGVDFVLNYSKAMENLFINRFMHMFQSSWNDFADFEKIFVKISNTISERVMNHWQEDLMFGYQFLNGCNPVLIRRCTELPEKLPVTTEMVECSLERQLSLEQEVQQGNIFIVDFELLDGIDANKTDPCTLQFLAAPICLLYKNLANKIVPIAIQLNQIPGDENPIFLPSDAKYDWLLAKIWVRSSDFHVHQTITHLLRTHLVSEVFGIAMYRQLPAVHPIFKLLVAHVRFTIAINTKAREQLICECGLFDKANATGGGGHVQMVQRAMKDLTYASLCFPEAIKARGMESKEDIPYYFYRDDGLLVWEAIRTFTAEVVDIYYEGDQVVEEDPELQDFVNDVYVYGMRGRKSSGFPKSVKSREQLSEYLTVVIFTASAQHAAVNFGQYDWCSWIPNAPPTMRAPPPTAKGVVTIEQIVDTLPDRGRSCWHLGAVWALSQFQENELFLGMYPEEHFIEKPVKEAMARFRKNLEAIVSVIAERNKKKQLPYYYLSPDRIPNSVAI
ASSAY SUMMARY: 5-Lipoxygenase inhibition in human leukocytes (LTC4 by radioimmunoassay)
Format: cell-based
CONDITIONS USED: A23187 stimulated, LTC4 readout, read-out: IC50 (concentration producing 50% leukotriene biosynthesis inhibition)
pIC50: −log10 of the molar value.
TEST READOUT: pIC50

1) CCC(CC)N(O)C(=O)Nc1ccc(Oc2ccc(NC(=O)N(O)C(CC)CC)cc2)cc1 :: 7.00
2) CN(O)C(=O)Nc1ccc(C(c2ccc(NC(=O)N(C)O)cc2)(C(F)(F)F)C(F)(F)F)cc1 :: 7.62
3) CCc1cc(Cc2cc(CC)c(NC(=O)N(C)O)c(CC)c2)cc(CC)c1NC(=O)N(C)O :: 5.37
4) CN(O)C(=O)Nc1cccc2c(NC(=O)N(C)O)cccc12 :: 5.25
5) CCC(CC)N(O)C(=O)Nc1ccc(Cc2ccc(NC(=O)N(O)C(CC)CC)c(Cl)c2)cc1Cl :: 6.96
6) CN(O)C(=O)Nc1ccc(Oc2ccc(NC(=O)N(C)O)cc2)cc1 :: 6.67
7) COc1cc(-c2ccc(NC(=O)N(C)O)c(OC)c2)ccc1NC(=O)N(C)O :: 7.00
8) CCC(CC)N(O)C(=O)Nc1ccc(NC(=O)N(O)C(CC)CC)cc1 :: 5.68
